Data origin: patent US11529341B2

Below, each entry is listed with its recorded IC50.
Molecular target: PD-1/PD-L1 interaction (Homo sapiens, UniProt Q9NZQ7)
Construct: Tag1 (undisclosed kit tag)
Sequence (Q9NZQ7 19-238 limits assumed): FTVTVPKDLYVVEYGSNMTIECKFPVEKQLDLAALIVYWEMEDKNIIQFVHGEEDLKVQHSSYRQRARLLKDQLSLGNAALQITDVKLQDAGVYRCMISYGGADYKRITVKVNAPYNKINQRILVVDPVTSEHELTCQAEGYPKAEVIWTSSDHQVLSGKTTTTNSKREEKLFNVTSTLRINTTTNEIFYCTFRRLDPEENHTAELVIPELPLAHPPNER
Test: PD-1/PD-L1 Homogenous Time-Resolved Fluorescence (HTRF) binding assay (CisBio kit)
Conditions: Biochemical PD1/PD-L1 inhibition

Below: 3 compounds and their reported IC50.
Cc1c(COc2ccc(CN3CCCC[C@H]3C(=O)O)c3c2CCCC3)cccc1-c1ccccc1 | 100 to 500 nM
CC(=O)NCCNCc1c(OCc2cncc(C#N)c2)cc(OCc2cccc(-c3ccccc3)c2C)c2c1CCC2 | < 100 nM
N#Cc1c(COc2cc(OCCCCC(=O)O)c(CN3CCCC[C@H]3C(=O)O)c3c2CCC3)cccc1-c1ccccc1 | < 100 nM

[in] Tell me the measured IC50 of Cc1c(COc2cc(OCC(F)(F)F)c(CN3CCCC[C@H]3C(=O)O)c3c2CCC3)cccc1-c1ccccc1 , please.
[out] < 100 nM

[in] Tell me the measured IC50 of Cc1c(COc2ccc(CNCCC(=O)O)c3c2CCC3)cccc1-c1ccccc1 , please.
[out] > 500 nM
